Numbers sourced from the supplement of paper PMC10567573.

B1: KRT34 (parent)
chain: YQSYFKTIEELQQKILCAKAENAR

Variants of: B1
Experiment: protein stability index of a GFP-peptide fusion (GPS, HEK-293T) (PSI 1-6); higher = more stable;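 further: lentivirally expressed fusions sorted by FACS into six bins by GFP to DsRed ratio, PSI derived from sequencing read proportions per bin multiplied by bin number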
Conditions: c terminus: a fixed tail appended
In this section we review reported protein stability index values for a set of variants.
// print number alone

Please review the following examples before continuing.
Req: Quick one: protein stability index of I15Q ?
Resp: 1.71

Req: Quick one: protein stability index of L16R ?
Resp: 2.02

Req: Quick one: protein stability index of R24C ?
Resp: 1.59

Req: Quick one: protein stability index of Y4H ?
Resp: 2.4

Then this variant:
Req: Quick one: protein stability index of Y4D ?
Resp: 2.24
